Entry source: ChEMBL document CHEMBL4765228

# Target Or Test System: Ribosomal protein S6 kinase alpha-5 (Homo sapiens)
# Measurement Protocol: Inhibition of human RPS6KA5 assessed as residual activity at 1 uM relative to control
Measurement Label: Activity (%)
Answers are plain numbers, in %.

Structure Smiles String	Activity [%]
Cn1cc(/C=C2\C(=O)Nc3ccc(S(N)(=O)=O)cc32)c2ccccc21	93
CN(C)S(=O)(=O)c1ccc2c(c1)/C(=C/c1cn(C)c3ccc(O)cc13)C(=O)N2	107
CNS(=O)(=O)c1ccc2c(c1)/C(=C/c1cn(C)c3ccc(OC)cc13)C(=O)N2	88
COc1ccc2c(c1)c(/C=C1\C(=O)Nc3ccc(S(N)(=O)=O)cc31)cn2C	95
COc1ccc2[nH]cc(/C=C3\C(=O)Nc4ccc(S(N)(=O)=O)cc43)c2c1	95

Query Activity for COc1ccc2c(c1)c(/C=C1\C(=O)Nc3ccc(S(=O)(=O)N(C)C)cc31)cn2C 108

----------
# Target Or Test System: Aurora kinase B (Homo sapiens)
# Measurement Protocol: Inhibition of human Aurora-B assessed as residual activity at 1 uM relative to control
Measurement Label: Activity (%)
Answers are plain numbers, in %.

Example entries and their recorded answers appear below.
Structure Smiles String	Measurement Label	Value
COc1ccc2c(c1)c(/C=C1\C(=O)Nc3ccc(S(=O)(=O)N(C)C)cc31)cn2C	Activity	71
COc1ccc2[nH]cc(/C=C3\C(=O)Nc4ccc(S(N)(=O)=O)cc43)c2c1	Activity	48
CNS(=O)(=O)c1ccc2c(c1)/C(=C/c1cn(C)c3ccc(OC)cc13)C(=O)N2	Activity	76
Cn1cc(/C=C2\C(=O)Nc3ccc(S(N)(=O)=O)cc32)c2ccccc21	Activity	42
CN(C)S(=O)(=O)c1ccc2c(c1)/C(=C/c1cn(C)c3ccc(O)cc13)C(=O)N2	Activity	11

As a next step, examine the molecule that follows.
// Input: COc1ccc2c(c1)c(/C=C1\C(=O)Nc3ccc(S(N)(=O)=O)cc31)cn2C . Output its Activity only. 50

----------
# Target Or Test System: Casein kinase II subunit alpha (Homo sapiens)
# Measurement Protocol: Inhibition of human CK2alpha1 assessed as residual activity at 0.1 uM relative to control
Measurement Label: Activity (%)
One number for each entry, in %.

Guide cases for Activity, answers given:
Structure Smiles String	Measurement Label	Unit Spec	Value
CNS(=O)(=O)c1ccc2c(c1)/C(=C/c1cn(C)c3ccc(OC)cc13)C(=O)N2	Activity	%	105
COc1ccc2[nH]cc(/C=C3\C(=O)Nc4ccc(S(N)(=O)=O)cc43)c2c1	Activity	%	90

I would be grateful if you could provide Activity for each of the following entries.
1. COc1ccc2c(c1)c(/C=C1\C(=O)Nc3ccc(S(=O)(=O)N(C)C)cc31)cn2C
2. COc1ccc2c(c1)c(/C=C1\C(=O)Nc3ccc(S(N)(=O)=O)cc31)cn2C
3. Cn1cc(/C=C2\C(=O)Nc3ccc(S(N)(=O)=O)cc32)c2ccccc21
4. CN(C)S(=O)(=O)c1ccc2c(c1)/C(=C/c1cn(C)c3ccc(O)cc13)C(=O)N2

98
101
102
97

----------
# Target Or Test System: Rho-associated protein kinase 2 (Homo sapiens) (UniProt O75116)
# Sequence (O75116 whole entry, looked up): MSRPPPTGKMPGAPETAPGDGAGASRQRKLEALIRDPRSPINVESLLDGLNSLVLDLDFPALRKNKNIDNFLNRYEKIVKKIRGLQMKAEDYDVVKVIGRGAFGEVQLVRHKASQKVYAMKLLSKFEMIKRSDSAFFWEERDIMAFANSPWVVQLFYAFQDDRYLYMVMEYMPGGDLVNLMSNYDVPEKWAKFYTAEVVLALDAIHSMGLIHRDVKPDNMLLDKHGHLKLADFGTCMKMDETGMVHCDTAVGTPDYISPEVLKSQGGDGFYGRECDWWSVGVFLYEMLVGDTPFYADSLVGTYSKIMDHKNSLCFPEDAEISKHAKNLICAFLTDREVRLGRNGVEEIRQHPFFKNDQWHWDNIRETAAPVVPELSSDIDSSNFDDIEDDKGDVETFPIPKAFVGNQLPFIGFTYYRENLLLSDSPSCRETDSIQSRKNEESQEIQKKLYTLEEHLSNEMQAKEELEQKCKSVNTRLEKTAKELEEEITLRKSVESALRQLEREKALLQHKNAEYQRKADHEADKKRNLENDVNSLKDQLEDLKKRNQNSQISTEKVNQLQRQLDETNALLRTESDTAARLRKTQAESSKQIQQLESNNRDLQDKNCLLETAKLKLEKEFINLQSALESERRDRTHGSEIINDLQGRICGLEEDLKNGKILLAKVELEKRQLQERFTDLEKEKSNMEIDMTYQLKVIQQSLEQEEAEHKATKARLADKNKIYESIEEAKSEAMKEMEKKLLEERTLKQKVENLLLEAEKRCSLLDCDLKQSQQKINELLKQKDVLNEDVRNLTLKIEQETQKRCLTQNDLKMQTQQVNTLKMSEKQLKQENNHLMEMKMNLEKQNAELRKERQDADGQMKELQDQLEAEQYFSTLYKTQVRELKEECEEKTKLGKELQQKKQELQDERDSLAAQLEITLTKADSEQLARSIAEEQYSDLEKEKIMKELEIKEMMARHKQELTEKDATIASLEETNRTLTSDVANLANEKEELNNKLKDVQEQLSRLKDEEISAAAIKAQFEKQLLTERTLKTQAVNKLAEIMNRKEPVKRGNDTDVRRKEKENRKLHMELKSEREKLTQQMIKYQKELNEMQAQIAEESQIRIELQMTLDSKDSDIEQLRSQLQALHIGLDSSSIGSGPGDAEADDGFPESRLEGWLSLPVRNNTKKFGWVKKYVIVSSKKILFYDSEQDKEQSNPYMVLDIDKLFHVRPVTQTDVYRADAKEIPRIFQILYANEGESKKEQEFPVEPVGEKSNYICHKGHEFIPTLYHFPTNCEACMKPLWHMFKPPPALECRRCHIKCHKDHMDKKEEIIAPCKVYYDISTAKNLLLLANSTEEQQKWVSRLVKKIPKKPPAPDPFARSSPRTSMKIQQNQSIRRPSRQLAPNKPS
# Measurement Protocol: Inhibition of human ROCK2 assessed as residual activity at 0.1 uM relative to control
Provide the recorded Activity for the entries that follow.
Numbers only, in %.

Worked cases, answers included:
Structure Smiles String	Unit Spec	Activity
Cn1cc(/C=C2\C(=O)Nc3ccc(S(N)(=O)=O)cc32)c2ccccc21	%	76
CN(C)S(=O)(=O)c1ccc2c(c1)/C(=C/c1cn(C)c3ccc(O)cc13)C(=O)N2	%	79
COc1ccc2c(c1)c(/C=C1\C(=O)Nc3ccc(S(=O)(=O)N(C)C)cc31)cn2C	%	92
COc1ccc2[nH]cc(/C=C3\C(=O)Nc4ccc(S(N)(=O)=O)cc43)c2c1	%	101
CNS(=O)(=O)c1ccc2c(c1)/C(=C/c1cn(C)c3ccc(OC)cc13)C(=O)N2	%	94

Kindly consider the entry below.
Quick one: give measured Activity for COc1ccc2c(c1)c(/C=C1\C(=O)Nc3ccc(S(N)(=O)=O)cc31)cn2C 99

----------
# Target Or Test System: Dual specificity mitogen-activated protein kinase kinase 1 (Homo sapiens) (UniProt Q02750)
# Sequence (Q02750 whole entry): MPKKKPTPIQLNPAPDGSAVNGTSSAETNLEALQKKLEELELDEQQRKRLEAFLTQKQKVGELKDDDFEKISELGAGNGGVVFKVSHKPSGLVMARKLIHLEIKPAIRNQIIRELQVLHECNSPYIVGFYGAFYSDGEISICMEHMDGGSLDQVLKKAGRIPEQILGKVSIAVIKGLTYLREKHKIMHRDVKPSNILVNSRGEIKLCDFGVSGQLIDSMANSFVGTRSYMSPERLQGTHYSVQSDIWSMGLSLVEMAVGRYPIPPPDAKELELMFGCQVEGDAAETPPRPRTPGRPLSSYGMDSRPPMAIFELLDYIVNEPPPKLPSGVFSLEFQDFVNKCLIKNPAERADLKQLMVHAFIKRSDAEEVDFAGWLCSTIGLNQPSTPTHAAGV
# Measurement Protocol: Inhibition of human wild type MEK1 assessed as residual activity at 1 uM relative to control
Decide using Activity: a value greater than or equal to 90% is true (1), a smaller one is false (0).

Structure Smiles String	Qualitative Label
COc1ccc2[nH]cc(/C=C3\C(=O)Nc4ccc(S(N)(=O)=O)cc43)c2c1	false (0)

Please indicate if the recorded Activity for Cn1cc(/C=C2\C(=O)Nc3ccc(S(N)(=O)=O)cc32)c2ccccc21 meets or exceeds 90%. false (0)

Hi, just wondering whether COc1ccc2c(c1)c(/C=C1\C(=O)Nc3ccc(S(=O)(=O)N(C)C)cc31)cn2C shows Activity of 90% or higher. true (1)

// inclusive: Activity at least 90%? input: CN(C)S(=O)(=O)c1ccc2c(c1)/C(=C/c1cn(C)c3ccc(O)cc13)C(=O)N2 true (1)

State whether the measured Activity reaches 90%, counting equality as reaching it, for CNS(=O)(=O)c1ccc2c(c1)/C(=C/c1cn(C)c3ccc(OC)cc13)C(=O)N2 true (1)

Quick check, Activity >= 90%? COc1ccc2c(c1)c(/C=C1\C(=O)Nc3ccc(S(N)(=O)=O)cc31)cn2C false (0)

----------
# Target Or Test System: Dual specificity tyrosine-phosphorylation-regulated kinase 1A (Homo sapiens) (UniProt Q13627)
# Measurement Protocol: Inhibition of human DYRK1A assessed as residual activity at 0.1 uM relative to control
Measurement Label: Activity (%)
Numbers only, in %.

Structure Smiles String	Activity (%)
COc1ccc2c(c1)c(/C=C1\C(=O)Nc3ccc(S(=O)(=O)N(C)C)cc31)cn2C	98
COc1ccc2c(c1)c(/C=C1\C(=O)Nc3ccc(S(N)(=O)=O)cc31)cn2C	101
COc1ccc2[nH]cc(/C=C3\C(=O)Nc4ccc(S(N)(=O)=O)cc43)c2c1	105
CN(C)S(=O)(=O)c1ccc2c(c1)/C(=C/c1cn(C)c3ccc(O)cc13)C(=O)N2	101
CNS(=O)(=O)c1ccc2c(c1)/C(=C/c1cn(C)c3ccc(OC)cc13)C(=O)N2	89

Please find the next compound below.
Check the records and state Activity for Cn1cc(/C=C2\C(=O)Nc3ccc(S(N)(=O)=O)cc32)c2ccccc21 122

----------
Provide the recorded Activity for the entries that follow.
# Target Or Test System: Serine/threonine-protein kinase Sgk1 (Homo sapiens)
# Measurement Protocol: Inhibition of human SGK1 assessed as residual activity at 1 uM relative to control
Answers are plain numbers, in %.

Below, 5 molecules whose answers are already recorded.
Structure Smiles String	Unit Spec	Value
COc1ccc2[nH]cc(/C=C3\C(=O)Nc4ccc(S(N)(=O)=O)cc43)c2c1	%	49
COc1ccc2c(c1)c(/C=C1\C(=O)Nc3ccc(S(N)(=O)=O)cc31)cn2C	%	75
Cn1cc(/C=C2\C(=O)Nc3ccc(S(N)(=O)=O)cc32)c2ccccc21	%	55
CNS(=O)(=O)c1ccc2c(c1)/C(=C/c1cn(C)c3ccc(OC)cc13)C(=O)N2	%	81
COc1ccc2c(c1)c(/C=C1\C(=O)Nc3ccc(S(=O)(=O)N(C)C)cc31)cn2C	%	80

Please find the next molecule below.
Give measured Activity for CN(C)S(=O)(=O)c1ccc2c(c1)/C(=C/c1cn(C)c3ccc(O)cc13)C(=O)N2 (Serine/threonine-protein kinase Sgk1 (Homo sapiens)). 81

----------
# Target Or Test System: Serine/threonine-protein kinase pim-1 (Homo sapiens)
# Measurement Protocol: Inhibition of human PIM1 assessed as residual activity at 0.1 uM relative to control
Measurement Label: Activity
Your reply should be a number followed by the unit it is expressed in.

Examples from the recorded data:
Structure Smiles String	Value
Cn1cc(/C=C2\C(=O)Nc3ccc(S(N)(=O)=O)cc32)c2ccccc21	105%
CN(C)S(=O)(=O)c1ccc2c(c1)/C(=C/c1cn(C)c3ccc(O)cc13)C(=O)N2	102%
COc1ccc2c(c1)c(/C=C1\C(=O)Nc3ccc(S(N)(=O)=O)cc31)cn2C	96%
CNS(=O)(=O)c1ccc2c(c1)/C(=C/c1cn(C)c3ccc(OC)cc13)C(=O)N2	94%
COc1ccc2[nH]cc(/C=C3\C(=O)Nc4ccc(S(N)(=O)=O)cc43)c2c1	103%

Annotate the compound COc1ccc2c(c1)c(/C=C1\C(=O)Nc3ccc(S(=O)(=O)N(C)C)cc31)cn2C with its measured Activity. 104%

----------
# Target Or Test System: Rho-associated protein kinase 2 (Homo sapiens) (UniProt O75116)
# Measurement Protocol: Inhibition of human ROCK2 assessed as residual activity at 1 uM relative to control
Give Activity for every item shown.
Answers are plain numbers, in %.

Structure Smiles String	Measurement Label	Unit Spec	Value
Cn1cc(/C=C2\C(=O)Nc3ccc(S(N)(=O)=O)cc32)c2ccccc21	Activity	%	55

Take each entry in turn and give its Activity.
1. CNS(=O)(=O)c1ccc2c(c1)/C(=C/c1cn(C)c3ccc(OC)cc13)C(=O)N2
2. COc1ccc2c(c1)c(/C=C1\C(=O)Nc3ccc(S(=O)(=O)N(C)C)cc31)cn2C
3. COc1ccc2[nH]cc(/C=C3\C(=O)Nc4ccc(S(N)(=O)=O)cc43)c2c1

79
89
61

Would you mind listing Activity for each of the following compounds?
1. COc1ccc2c(c1)c(/C=C1\C(=O)Nc3ccc(S(N)(=O)=O)cc31)cn2C
2. CN(C)S(=O)(=O)c1ccc2c(c1)/C(=C/c1cn(C)c3ccc(O)cc13)C(=O)N2

1: 87; 2: 69
